Experiment: Pharmacokinetics of Compound I in healthy volunteers after a single dose of Form B of Compound II
Assay type: in vivo, human
Conditions: human, plasma, oral, single 48 mg dose of Form B of Compound II, read-out: Vz/F
quantity-measured: Vd/F (L)
Numeric only. Scale: L

Request: Any idea what its Vd/F is? The compound is CC(C)N1CCN(c2ccc(Nc3ncc4cc5n(c4n3)C3(CCCCC3)CNC5=O)nc2)CC1 [Compound I]
Response: 10400

* * *

Assay: Noncompartmental pharmacokinetic parameters (Cmax, Tmax, AUC, Racc) in QD and BID cohorts of Form B
Type: in vivo, human
Details: human, plasma, oral, 400 mg, Compound III; 400 mg QD of Form B; Cohort 3; Day 1; read-out: Cmax (Median)
quantity-measured: Cmax (ng/mL)
Numeric only. Scale: ng/mL

Request: Any idea what its Cmax is? The compound is O=C1NCC2(CCCCC2)n2c1cc1cnc(Nc3ccc(N4CCNCC4)cn3)nc12
Response: 4.66

Source: patent US11357779B2
